The reported measurements were obtained from paper PMC10667535.

Give pKd for every item shown.
biological target: RSp0980 (Ralstonia pseudosolanacearum, UniProt Q8XR79); test: biochemical
Sequence (Q8XR79 1-222): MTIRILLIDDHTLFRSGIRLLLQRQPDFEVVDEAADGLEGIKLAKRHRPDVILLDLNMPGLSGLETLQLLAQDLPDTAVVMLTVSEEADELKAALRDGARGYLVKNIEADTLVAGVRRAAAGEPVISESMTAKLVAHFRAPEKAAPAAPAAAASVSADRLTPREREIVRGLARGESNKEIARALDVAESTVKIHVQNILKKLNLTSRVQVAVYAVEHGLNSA
Answers are plain numbers, as −log10 of the molar value.

Nc1ncnc2c1ncn2[C@@H]1O[C@H](CO)[C@H]2OP(=O)(O)O[C@H]21 [2′,3′-cAMP] | 4.09
Nc1nc2c(ncn2[C@@H]2O[C@@H]3COP(=O)(O)O[C@@H]4[C@H](O)[C@@H](COP(=O)(O)O[C@H]3[C@H]2O)O[C@H]4n2cnc3c(=O)[nH]c(N)nc32)c(=O)[nH]1 [2′,3′-c-di-GMP] | 3.90

Now, please, on to the next molecule.
Specify pKd for Nc1nc2c(ncn2[C@@H]2O[C@@H]3CO[P@](=O)(O)O[C@H]4[C@@H](O)[C@H](n5cnc6c(=O)[nH]c(N)nc65)O[C@@H]4CO[P@](=O)(O)O[C@H]3[C@H]2O)c(=O)[nH]1 [bis-3′,5′-c-di-GMP] and stop. 3.88
